# MEASURED_ON: CCR2 (Homo sapiens)
# Construct: host or cells: THP-1 cells
# EXPERIMENT_DESCRIPTION: MCP-1 Receptor Binding Assay in THP-1 Cells
# EXPERIMENTAL_CONTEXT: THP-1 cells, 0.5 nM 125I labeled MCP-1, 2 hours at 30° C.; read-out: Inhibition of MCP-1 Binding IC50
pIC50: −log10 of the molar value.
# Lookup of reported pIC50 keyed by entry
OBSERVATION_TYPE: pIC50

O=C(/C=C/c1ccc(Cl)c(Cl)c1)N1CCC(O)(C(O)CN2CCC(c3c[nH]c4ccccc34)CC2)CC1 (stereo not shown); 6.46
N=C(NC(=O)c1cc(F)cc(F)c1)N1CCC(C(O)CN2CCC(c3c[nH]c4ccccc34)CC2)CC1 (stereo not shown); 6.82
O=C(/C=C/c1cc(Cl)cc(Cl)c1)N1CCC(O)(C(O)CN2CCC(c3c[nH]c4ccccc34)CC2)CC1 (stereo not shown); 6.89
COc1ccc(C2CCN(CC(O)C3(O)CCN(C(=O)/C=C/c4ccc(Cl)c(Cl)c4)CC3)CC2)cc1 (stereo not shown); 6.60
Cc1cccc(/C=C/C(=O)N2CCC(C(O)CN3CCC(c4cc[nH]n4)CC3)CC2)c1 (stereo not shown); 5.85
O=C(/C=C/c1cc(F)cc(F)c1)N1CCC(C(O)CN2CCC(c3c[nH]c4ccccc34)CC2)CC1 (stereo not shown); 7.52
O=C(CCc1ccc(Cl)c(Cl)c1)N1CCC(O)(C(O)CN2CCC(c3c[nH]c4ccc(F)cc34)CC2)CC1 (stereo not shown); 5.57

###

# MEASURED_ON: CCR2 (Homo sapiens, UniProt P41597)
# Sequence (P41597 1-360 isoform P41597-2): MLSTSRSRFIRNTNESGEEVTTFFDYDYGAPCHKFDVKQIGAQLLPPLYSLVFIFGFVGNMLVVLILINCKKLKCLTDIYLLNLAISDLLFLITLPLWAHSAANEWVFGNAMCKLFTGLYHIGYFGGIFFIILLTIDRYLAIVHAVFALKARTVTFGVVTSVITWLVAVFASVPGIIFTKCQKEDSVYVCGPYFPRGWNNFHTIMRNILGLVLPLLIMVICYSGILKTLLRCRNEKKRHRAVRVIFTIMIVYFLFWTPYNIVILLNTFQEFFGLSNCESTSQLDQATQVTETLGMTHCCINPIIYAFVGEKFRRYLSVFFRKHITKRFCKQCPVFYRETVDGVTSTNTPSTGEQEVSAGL
# EXPERIMENT_DESCRIPTION: MCP-1 Receptor Binding Assay in THP-1 Cells
# EXPERIMENTAL_CONTEXT: THP-1 cells, 0.5 nM 125I labeled MCP-1, 2 hours at 30° C.; read-out: Inhibition of MCP-1 Binding IC50
OBSERVATION_TYPE: IC50 (nM)

O=C(/C=C/c1ccc(F)c(F)c1)N1CCC(O)(C(O)CN2CCC(O)(c3ccc(F)cc3)CC2)CC1 (stereo not shown) [Compound 153]; 730
O=C(/C=C/c1cccc(F)c1)N1CCC(O)(C(O)CN2CCC(c3c[nH]c4ccccc34)CC2)CC1 (stereo not shown) [Compound 76]; 470
O=C(/C=C/c1cc(F)c(F)c(F)c1)N1CCC(C(O)CN2CCC(c3nc4ccccc4[nH]3)CC2)CC1 (stereo not shown) [Compound 86]; 80
O=C(Nc1cc(F)cc(F)c1)N1CCC(O)(C(O)CN2CCC(c3ccc(C(F)(F)F)cc3)CC2)CC1 (stereo not shown) [Compound 142]; 260
O=C(/C=C/c1ccc(F)c(Br)c1)N1CCC(O)(C(O)CN2CCC(c3c[nH]c4ccc(N5CCOCC5)cc34)CC2)CC1 (stereo not shown) [Compound 173]; 910
COc1ccc(C2CCN(CC(O)C3CCN(C(=O)/C=C/c4cccc(C)c4)CC3)CC2)cc1 (stereo not shown) [Compound 29]; 70
O=C(/C=C/c1ccc(Cl)c(Cl)c1)N1CCC(O)(C(O)CN2CCC(c3ccc(C(F)(F)F)cc3)CC2)CC1 (stereo not shown) [Compound 139]; 920

###

log10(IC50) overview
# MEASURED_ON: CCR2 (Homo sapiens)
# EXPERIMENT_DESCRIPTION: MCP-1 Receptor Binding Assay in THP-1 Cells
# EXPERIMENTAL_CONTEXT: THP-1 cells, 0.5 nM 125I labeled MCP-1, 2 hours at 30° C.; read-out: Inhibition of MCP-1 Binding IC50
# Experimental: THP-1 cells were obtained from American Type Culture Collection (Manassas, Va., USA). The THP-1 cells were grown in RPMI-1640 supplemented with 10% fetal bovine serum in a humidified 5% CO2 atmosphere at 37° C. The cell density was maintained […]. […]
OBSERVATION_TYPE: log10(IC50) (log10 of the value in nM)

COc1ccc(C2CCN(CC(CO)C3CCN(C(=O)/C=C/c4cccc(C)c4)CC3)CC2)cc1 (stereo not shown); 3.34
O=C(/C=C/c1ccc(Cl)c(Cl)c1)N1CCC(C(O)CN2CCC(c3c[nH]c4ncccc34)CC2)CC1 (stereo not shown); 1.30
O=C(/C=C/c1cc(F)cc(F)c1)N1CCC(O)(C(O)CN2CCC(c3ccc(C(F)(F)F)cc3)CC2)CC1 (stereo not shown); 2.32
O=C(/C=C/c1cc(F)c(F)c(F)c1)N1CCC(CC(CO)N2CCC(c3c[nH]c4ccccc34)CC2)CC1 (stereo not shown); 3.54
O=C(/C=C/c1ccc(Cl)c(Cl)c1)N1CCC(C(O)C(=O)N2CCC(c3ccc(Cl)cc3)CC2)CC1 (stereo not shown); 3.53
CCOC(=O)C(CN1CCC(c2ccc(OC)cc2)CC1)C1CCN(C(=O)C=Cc2cc(F)c(F)c(F)c2)CC1 (stereo not shown); 3.67
O=C(/C=C/c1cc(F)c(F)c(F)c1)N1CCC(O)(C(O)CN2CCC(c3c[nH]c4ccc(N5CCOCC5)cc34)CC2)CC1 (stereo not shown); 3.04
CS(=O)(=O)Nc1ccc2[nH]cc(C3CCN(CC(=O)C4CCN(C(=O)C=Cc5cc(F)c(F)c(F)c5)CC4)CC3)c2c1; 2.83
O=C(/C=C/c1cc(F)c(F)c(F)c1)N1CCC(O)(C(O)CN2CCC(O)(c3ccc(F)cc3)CC2)CC1 (stereo not shown); 3.49
COc1ccc(C2CCN(CC(O)C3CCN(C(=S)Nc4cccc(Br)c4)CC3)CC2)cc1 (stereo not shown); 2.11
O=C(/C=C/c1cc(F)cc(F)c1)N1CCC(C(O)CN2CCC(c3nc4ccccc4o3)CC2)CC1 (stereo not shown); 3.32
OC(CN1CCC(c2c[nH]c3ccccc23)CC1)C1(O)CCN(c2nccc(C(F)(F)F)n2)CC1 (stereo not shown); 3.28
Nc1ccc2[nH]cc(C3CCN(CC(O)C4CCN(C(=O)OCc5ccccc5)CC4)CC3)c2c1 (stereo not shown); 3.48
O=C(Nc1ccc(F)c(F)c1)N1CCC(O)(C(O)CN2CCC(c3ccc(F)cc3)CC2)CC1 (stereo not shown); 3.38
O=C(Nc1ccc(Cl)c(Cl)c1)N1CCC(O)(C(O)CN2CCC(c3ccc(C(F)(F)F)cc3)CC2)CC1 (stereo not shown); 3.00
O=C(/C=C/c1cc(C(F)(F)F)cc(C(F)(F)F)c1)N1CCC(O)(C(O)CN2CCC(c3c[nH]c4ccccc34)CC2)CC1 (stereo not shown); 2.85
COc1ccc(C2CCN(CC(O)C3CCN(C(=O)/C=C/c4cccc(C(F)(F)F)c4)CC3)CC2)cc1 (stereo not shown); 1.70
O=C(/C=C/c1cc(F)cc(F)c1)N1CCC(O)(C(O)CN2CCC(c3c[nH]c4ccccc34)CC2)CC1 (stereo not shown); 1.60
OC(CN1CCC(c2c[nH]c3ccccc23)CC1)C1(O)CCN(C(=S)Nc2ccc(Cl)c(Cl)c2)CC1 (stereo not shown); 2.74
O=C(c1cc(F)c(F)c(F)c1)N1CCC(C(O)CN2CCC(c3c[nH]c4ccccc34)CC2)CC1 (stereo not shown); 3.81
O=C(Nc1ccc(Cl)c(Cl)c1)N1CCC(O)(C(O)CN2CCC(c3ccc(F)cc3)CC2)CC1 (stereo not shown); 3.28
COc1ccc(C2CCN(CC(O)C3(O)CCN(C(=O)/C=C/c4ccc(F)c(F)c4)CC3)CC2)cc1 (stereo not shown); 2.49
COc1ccc(/C=C/C(=O)N2CCC(O)(C(O)CN3CCC(c4ccc(C(F)(F)F)cc4)CC3)CC2)cc1OC (stereo not shown); 4.19
O=C(Nc1ccc(Cl)c(Cl)c1)N1CCC(C(O)CN2CCC(c3c[nH]c4ccccc34)CC2)CC1 (stereo not shown); 1.48
O=C(Nc1ccc(F)c(F)c1)N1CCC(O)(C(O)CN2CCC(c3c[nH]c4ccc(N5CCOCC5)cc34)CC2)CC1 (stereo not shown); 3.76
